target-or-test-system: MATK (human)
procedure-summary: radiometric filter-binding kinase assay, Kinase HotSpot
cond: compound 0.5 µM; ATP 10 µM
Threshold-based label: residual activity under 90% gives Criterion met, residual activity not under 90% gives Criterion not met.

{"columns": ["compound", "assigned-class"],
 "data": [
  ["O=C1Nc2cc(Br)ccc2/C1=C1/Nc2ccccc2/C1=N\\O", "Criterion not met"],
  ["NC(=O)c1ccc(N(C(N)=O)c2c(F)cccc2F)nc1-c1ccc(F)cc1F", "Criterion met"],
  ["Nc1nc(Nc2ccc(S(N)(=O)=O)cc2)nn1C(=O)c1c(F)cccc1F", "Criterion not met"],
  ["O=C1Cc2c([nH]c3ccc([N+](=O)[O-])cc23)-c2ccccc2N1", "Criterion not met"],
  ["CC(C)n1cnc2c(Nc3cccc(Cl)c3)nc(NCCO)nc21", "Criterion not met"],
  ["Nc1nc(Nc2ccc(S(N)(=O)=O)cc2)nn1C(=S)Nc1c(F)cccc1F", "Criterion not met"],
  ["Clc1ccc(Nc2nnc(Cc3ccncc3)c3ccccc23)cc1", "Criterion met"],
  ["CCCNC(=O)Nc1ccc(Oc2ncnc3cc(OC)c(OC)cc23)cc1Cl", "Criterion not met"],
  ["Cc1ccc(NC(=O)c2ccc(CN3CCN(C)CC3)cc2)cc1Nc1nc(-c2cccnc2)cs1", "Criterion met"],
  ["O=C(Nc1ccc(Cl)cc1)c1ccccc1NCc1ccncc1", "Criterion not met"],
  ["Cc1cc2ncc(-c3ccccc3)nc2cc1C", "Criterion not met"],
  ["O=c1cc(N2CCNCC2)oc2c(-c3ccccc3)cccc12", "Criterion met"],
  ["CS(=O)c1ccc(-c2nc(-c3ccc(F)cc3)c(-c3ccncc3)[nH]2)cc1 (configuration not stated)", "Criterion not met"],
  ["CC(C)(C)c1nc2c3ccc(F)cc3c3c(=O)[nH]ccc3c2[nH]1", "Criterion not met"],
  ["CSc1nc(-c2ccc(F)cc2)c(-c2ccnc(NC(C)c3ccccc3)c2)[nH]1 (configuration not stated)", "Criterion met"],
  ["O=C(NC(NC(=S)Nc1ccc(F)c([N+](=O)[O-])c1)C(Cl)(Cl)Cl)C(c1ccccc1)c1ccccc1 (configuration not stated)", "Criterion not met"],
  ["COc1ccc(-c2cnc3c(-c4ccsc4)cnn3c2)cc1", "Criterion not met"],
  ["COc1cc2ncnc(Nc3ccc(F)c(Cl)c3)c2cc1OCCCN1CCOCC1", "Criterion met"],
  ["O=c1cc(-c2cccc3c2Sc2ccccc2S3)oc(N2CCOCC2)c1", "Criterion not met"],
  ["COc1cc2nccc(Oc3ccc(NC(=S)NC(=O)c4ccccc4C)cc3)c2cc1OC", "Criterion not met"]
]}

These data points were gathered from the kinase profiling compilation of Christmann-Franck et al. (2016).
